- assayedTarget: recombinant SARS-CoV-2 Main protease (Mpro) (Severe acute respiratory syndrome coronavirus 2 (2019-nCoV) (SARS-CoV-2), UniProt P0DTD1)
- testProtocol: Cov Mpro Biochemical IC50 Assay
- measurementContext: recombinant SARS-CoV-2 Mpro 7.5 nM, fluorogenic peptide substrate 40 μM; read-out: MPro IC50
pIC50: −log10 of the molar value.
Would you mind labelling by pIC50? At or over 8 is YES, under is NO.

molecule	group
COc1cc(-c2cc3[nH]c(=O)n(-c4cncc5ccn(C)c45)c(=O)c3s2)c(Cl)cc1F (single isomer, unassigned) [Example 957]	YES
O=c1[nH]c2cc(-c3ccccc3Cl)ccc2c(=O)n1-c1cncc2cccnc12 [Example 450]	NO
COc1cc(-c2cc3c(s2)c(=O)n(-c2cncc4ccccc24)c(=O)n3CC2(C#N)CCC2)c(Cl)cc1F [Example 690]	NO
COc1cc(-c2cc3[nH]c(=O)n(-c4cncc5nc(C)n(C)c45)c(=O)c3s2)c(Cl)cc1F [Example 764]	NO
O=c1[nH]c2cc(-c3ccccc3Cl)sc2c(=O)n1-c1cncc2ccc(N3C[C@H]4C[C@@H]3CO4)cc12 [Example 394]	YES
O=c1[nH]c2cc(-c3ccccc3Cl)sc2c(=O)n1-c1cncc2c1CCCO2 [Example 596]	NO

Ask: Does pIC50 meet or surpass 8 for COc1ccc(Cl)c(-c2cc3[nH]c(=O)n(-c4cncc5ccccc45)c(=O)c3s2)c1 (single isomer, unassigned) [Example 466] ?
Result: NO

Ask: Repeat for the following molecule: COc1cc(-c2cc3[nH]c(=O)n(-c4cncc5nccn45)c(=O)c3s2)c(Cl)cc1F [Example 978]
Result: NO

Ask: Repeat for the following molecule: Cn1cc(-c2cccc(Cl)c2-c2cc3[nH]c(=O)n(-c4cncc5ccccc45)c(=O)c3s2)c(C2CC2)n1 [Example 527]
Result: YES

Ask: Repeat for the following molecule: Cn1ncc2cncc(-n3c(=O)c4sc(-c5ccc(C#N)cc5Cl)cc4n(CCC#N)c3=O)c21 [Example 1025]
Result: NO

Ask: Repeat for the following molecule: COc1cc(-c2cc3[nH]c(=O)n(-c4cnnc(C)c4)c(=O)c3s2)c(Cl)cc1F [Example 714]
Result: NO

###

- Tested on: SARS-CoV-2-NLuc
- testProtocol: microbe, parasite or virus in culture
- Assay type: cell-based, SARS Coronavirus 2
- measurementContext: Severe acute respiratory syndrome coronavirus, 48 h; read-out: MPro EC50
pEC50: −log10 of the molar value.
Would you mind labelling by pEC50? At or over 7 is Yes, under is No.

compound	assayedTarget	group
COc1ccc(Cl)c(-c2ccc3c(=O)n(-c4cncc5ccc(OC)cc45)c(=O)[nH]c3c2)c1 [Example 238]	SARS-CoV-2-NLuc	Yes
COc1ccc(Cl)c(-c2cc3[nH]c(=O)n(-c4cncc5nc(C67CC(F)(C6)C7)n(C)c45)c(=O)c3s2)c1 [Example 436]	SARS-CoV-2-NLuc	No
COc1cc(-c2cc3[nH]c(=O)n(-c4cncc5ccccc45)c(=O)c3cc2F)c(Cl)cc1F [Example 650]	SARS-CoV-2-NLuc	Yes

Ask: Does pEC50 meet or surpass 7 for COc1ccc(Cl)c(-c2cc3[nH]c(=O)n(-c4cncc(C5CC5)c4)c(=O)c3s2)c1 [Example 367] ?
Result: Yes

Ask: Repeat for the following compound: O=c1[nH]c2cc(-c3cncc4ccccc34)ccc2c(=O)n1-c1cncc2ccccc12 [Example 42]
Result: No

###

- assayedTarget: recombinant SARS-CoV-2 Main protease (Mpro) (Severe acute respiratory syndrome coronavirus 2 (2019-nCoV) (SARS-CoV-2))
- testProtocol: Cov Mpro Biochemical IC50 Assay
- measurementContext: recombinant SARS-CoV-2 Mpro, fluorogenic peptide substrate; read-out: MPro IC50
Overview of recorded pIC50 for various molecules
In simple prose, pIC50 is minus the logarithm base ten of a concentration in moles per litre.

Ask: Fill in the blank: the reported pIC50 of COc1cc(-c2ccc3c(=O)n(-c4cncc5ccccc45)c(=O)[nH]c3c2)c(Cl)cc1Cl is ____.
Result: 5.97

Ask: Repeat for the following molecule: Cc1cccc(C)c1-c1ccc2c(=O)n(-c3cncc4ccccc34)c(=O)[nH]c2c1
Result: 6.11

Ask: Repeat for the following molecule: O=c1[nH]c2cc(-c3c(Cl)cccc3-c3cc4n(n3)CCC4)ccc2c(=O)n1-c1cncc2ccccc12
Result: 7.68

Ask: Repeat for the following molecule: Cc1cc(F)ccc1-c1cc2[nH]c(=O)n(-c3cncc4ccccc34)c(=O)c2s1
Result: 7.05

Ask: Repeat for the following molecule: CCS(=O)(=O)c1cccc(-c2cccc(Cl)c2-c2ccc3c(=O)n(-c4cncc5ccccc45)c(=O)[nH]c3c2)c1
Result: 7.59

Ask: Repeat for the following molecule: COc1ncc(-c2cccc(Cl)c2-c2ccc3c(=O)n(-c4cncc5ccccc45)c(=O)[nH]c3c2)cc1C#N
Result: 6.95

###

- assayedTarget: recombinant SARS-CoV-2 Main protease (Mpro) (Severe acute respiratory syndrome coronavirus 2 (2019-nCoV) (SARS-CoV-2), UniProt P0DTD1)
- testProtocol: Cov Mpro Biochemical IC50 Assay
- measurementContext: recombinant SARS-CoV-2 Mpro, fluorogenic peptide substrate; read-out: MPro IC50
Overview of recorded IC50 for various compounds
Could you give me the number in nM? Just the number is fine.

1. Cn1cc2cc(-c3cccc(Cl)c3-c3ccc4c(=O)n(-c5cncc6ccccc56)c(=O)[nH]c4c3)ccc2n1 63

Ask: Fill in the blank: the reported IC50 of O=c1[nH]c2cc(-c3ccsc3-c3ccsc3Cl)ccc2c(=O)n1-c1cncc2ccccc12 is ____.
Result: 1490

Ask: Repeat for the following compound: O=c1[nH]c2cc(-c3cc(OC(F)F)ccc3Cl)ccc2c(=O)n1-c1cncc2ccccc12
Result: 326

Ask: Repeat for the following compound: Cc1nc2cc(-c3cccc(Cl)c3-c3ccc4c(=O)n(-c5cncc6ccccc56)c(=O)[nH]c4c3)ccc2o1
Result: 107

###

Overview of recorded log10 IC50 for various molecules
- assayedTarget: recombinant SARS-CoV-2 Main protease (Mpro) (Severe acute respiratory syndrome coronavirus 2 (2019-nCoV) (SARS-CoV-2), UniProt P0DTD1)
- testProtocol: Cov Mpro Biochemical IC50 Assay
- measurementContext: recombinant SARS-CoV-2 Mpro, fluorogenic peptide substrate; read-out: MPro IC50
Recall that a logarithmic scale is used here: each number is log10 of IC50 in nM.

Known results for molecules:
1. Cn1ncc(-c2cccc(Cl)c2-c2ccc3c(=O)n(-c4cncc5ccccc45)c(=O)[nH]c3c2)c1C(F)F 1.66
2. O=c1[nH]c2cc(-c3cc(C(F)(F)F)ccc3Cl)ccc2c(=O)n1-c1cncc2ccccc12 3.57
3. O=c1[nH]c2cc(-c3c(Cl)cccc3-c3cnn4c3COCC4)ccc2c(=O)n1-c1cncc2ccccc12 0.94
4. O=c1[nH]c2cc(-c3ccccc3Cl)ccc2c(=O)n1-c1cnccc1C1CCOCC1 3.01
5. Cc1cc2ncnn2cc1-c1cc2[nH]c(=O)n(-c3cncc4ccccc34)c(=O)c2s1 3.60

Ask: Fill in the blank: the reported log10 IC50 of O=c1[nH]c2cc(-c3ccsc3Cl)ccc2c(=O)n1-c1cncc2ccccc12 is ____.
Result: 2.78

Ask: Repeat for the following molecule: Cn1cnc(COc2cccc(Cl)c2-c2ccc3c(=O)n(-c4cncc5ccccc45)c(=O)[nH]c3c2)n1
Result: 2.37

###

- assayedTarget: recombinant SARS-CoV-2 Main protease (Mpro) (Severe acute respiratory syndrome coronavirus 2 (2019-nCoV) (SARS-CoV-2))
- testProtocol: Cov Mpro Biochemical IC50 Assay
- measurementContext: recombinant SARS-CoV-2 Mpro, fluorogenic peptide substrate; read-out: MPro IC50
propertyName: pIC50
In simple prose, pIC50 is minus the logarithm base ten of a concentration in moles per litre.

Known results for molecules:
1. O=c1[nH]c2cc(-c3ccccc3OCc3ccccc3Cl)ccc2c(=O)n1-c1cncc2ccccc12 4.89
2. COc1cc(-c2ccc3c(=O)n(-c4cncc5ccccc45)c(=O)[nH]c3c2)c(Cl)cc1F 7.14
3. O=c1[nH]c2cc(-c3c(Cl)cccc3-c3cn(C4CC4)nn3)ccc2c(=O)n1-c1cncc2ccccc12 7.76
4. COCc1ccccc1-c1cc2[nH]c(=O)n(-c3cncc4ccccc34)c(=O)c2s1 7.45

Shift focus to the following entry.
Ask: Fill in the blank: the reported pIC50 of CS(=O)(=O)c1ccc(-c2cccc(Cl)c2-c2ccc3c(=O)n(-c4cncc5ccccc45)c(=O)[nH]c3c2)cn1 is ____.
Result: 7.93

###

- assayedTarget: recombinant SARS-CoV-2 Main protease (Mpro) (Severe acute respiratory syndrome coronavirus 2 (2019-nCoV) (SARS-CoV-2))
- testProtocol: Cov Mpro Biochemical IC50 Assay
- measurementContext: recombinant SARS-CoV-2 Mpro 7.5 nM, fluorogenic peptide substrate 40 μM; read-out: MPro IC50
Overview of recorded IC50 for various compounds
Could you give me the number in nM? Just the number is fine.

Known results for compounds:
1) O=c1[nH]c2cc(-c3c(Cl)cccc3OCc3cscn3)ccc2c(=O)n1-c1cncc2ccccc12 97.2
2) O=c1[nH]c2cc(-c3ccccc3Cl)sc2c(=O)n1-c1cncc2ccc(N3C[C@@H]4C[C@H]3CO4)cc12 9

Ask: Fill in the blank: the reported IC50 of COc1ccc(Cl)c(-c2ccc3c(=O)n(-c4cncc5cccnc45)c(=O)[nH]c3c2)c1 is ____.
Result: 28.4

Ask: Repeat for the following compound: Cn1cnc2cncc(-n3c(=O)c4sc(-c5ccccc5C#N)cc4n(CCC#N)c3=O)c21
Result: 65.6
